For each record, write down the corresponding Zone of stimulation.
- Tested on: Escherichia coli
- TEST_DETAILS: Compound was evaluated for zone of stimulation of growth in Escherichia coli RWB18 at a concentration of 25 nM
- Assay type: functional
One number for each entry, in mm.

Need Zone of stimulation for each of these compounds.
1. O=C(CCC(=O)N(CCCCNC(=O)c1cccc(O)c1O)CCCNC(=O)c1cccc(O)c1O)NCCCC[C@H](NC(=O)c1cccc(O)c1O)C(=O)N[C@@H]1C(=O)N2C(C(=O)O)=C(Cl)CC[C@H]12 (stereo in doubt)
2. O=C(O)CCC(=O)N(CCCCNC(=O)c1cccc(O)c1O)CCCNC(=O)c1cccc(O)c1O
3. O=C(CCC(=O)N(CCCCNC(=O)c1cccc(O)c1O)CCCNC(=O)c1cccc(O)c1O)NCCCC[C@H](NC(=O)c1cccc(O)c1O)C(=O)N[C@@H]1C(=O)N2C(C(=O)O)=C(Cl)CC[C@H]12 (stereo in doubt; 8)
4. O=C(CCC(=O)N(CCCCNC(=O)c1cccc(O)c1O)CCCNC(=O)c1cccc(O)c1O)NCCCC[C@H](NC(=O)c1cccc(O)c1O)C(=O)O (stereo in doubt)

*A*
1: 20; 2: 24; 3: 16; 4: 24
